Consider the following sequences and their measured self-splicing fitness (ln) readings.
test: self-splicing fitness, log relative to wild type (ln ratio); higher = more splicing; Tetrahymena group I intron in knt gene, E. coli kanamycin selection, DiMSum; sequences stand for … in CUCUCU…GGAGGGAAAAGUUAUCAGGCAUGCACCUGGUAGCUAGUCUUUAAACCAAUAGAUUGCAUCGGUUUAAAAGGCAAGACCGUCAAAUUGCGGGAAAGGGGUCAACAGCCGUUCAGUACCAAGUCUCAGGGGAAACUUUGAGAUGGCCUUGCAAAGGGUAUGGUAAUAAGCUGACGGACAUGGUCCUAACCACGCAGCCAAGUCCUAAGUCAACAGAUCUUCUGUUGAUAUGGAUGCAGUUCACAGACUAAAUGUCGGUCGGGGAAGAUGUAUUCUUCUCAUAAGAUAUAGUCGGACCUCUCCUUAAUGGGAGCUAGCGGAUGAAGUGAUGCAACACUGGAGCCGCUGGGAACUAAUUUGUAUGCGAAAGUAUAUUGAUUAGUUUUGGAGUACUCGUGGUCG; conditions: 30 °C;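 further: selection with 25 µg/mL kanamycin versus none on LB agar overnight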
Lab note: jot the number down without any unit.

Worked cases, answers included:
Chain | self-splicing fitness (ln)
CUAUAGCAAUAUUACGGGAA | -2.55
CGCCAGCAAUAUUACGGUGG | -2.06

# context switch: different sequence, same self-splicing fitness (ln)
*Q* Quick check: self-splicing fitness (ln) of AUUUAGCAAUAUUACGCCUA ?
*A* -1.24

* * *

assay: self-splicing fitness, log relative to wild type (ln ratio); higher = more splicing; Tetrahymena group I intron in knt gene, E. coli kanamycin selection, DiMSum; sequences stand for … in CUCUCU…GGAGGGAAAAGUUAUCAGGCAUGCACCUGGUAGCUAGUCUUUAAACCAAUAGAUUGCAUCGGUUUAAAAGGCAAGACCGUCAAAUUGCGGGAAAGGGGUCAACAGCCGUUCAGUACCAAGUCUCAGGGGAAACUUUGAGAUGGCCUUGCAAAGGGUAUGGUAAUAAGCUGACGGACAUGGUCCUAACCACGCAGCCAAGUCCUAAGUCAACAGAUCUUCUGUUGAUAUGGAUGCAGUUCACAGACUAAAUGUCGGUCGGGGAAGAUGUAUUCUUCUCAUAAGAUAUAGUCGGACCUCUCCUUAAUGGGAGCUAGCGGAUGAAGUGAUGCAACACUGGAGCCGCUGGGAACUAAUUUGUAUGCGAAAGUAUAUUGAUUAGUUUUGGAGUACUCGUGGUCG; settings: 37 °C
Tick MET if self-splicing fitness (ln) is -1 or greater. Tick NOT MET if self-splicing fitness (ln) is less than -1.

Record excerpt, results attached:
Chain | Assigned Label
GUGGAGCAAUAUUACGCCAA | MET
GUUUAGCAAUAUUACGGCUA | NOT MET
UUAUAGCAAUAUUACGGGUC | NOT MET
GCCGAGCAAUAUUACGACAC | MET
CCAAAGCAAUAUUACGGCAA | NOT MET

*Q* Please check the record AUAAAGCAAUAUUACGGUAU and state if its self-splicing fitness (ln) is at or above -1.
*A* MET

*Q* Now the same for UCCUAGCAAUAUUACGAGGG
*A* NOT MET

*Q* Now the same for GGCAAGCAAUAUUACGCUCG
*A* NOT MET

*Q* Now the same for UGCGAGCAAUAUUACGUACG
*A* NOT MET
